Quick reference: inhibition at 1 µM of the listed items.
- Assayed Target: aldose reductase (Rattus norvegicus, UniProt P07943)
- Construct: their crystalline lenses were immediately removed and stored at -80° C; The lenses were homogenized; from tissue; host or cells: crystalline lens of six-week-old male SD rats (homogenate supernatant, dialysed)
- Method: Aldose Reductase Inhibition Test (Experiment 1)
- Type: biochemical, rat (male SD rat crystalline lens)
- Test Conditions: *Concentration of 10^-6 M; DL-glycerine aldehyde 10 mM, pH 6.2, 30° C., 5 min

CC(C)(C)c1ccc(-c2nnnn2CC(=O)O)cc1 [Compound 3-26] | 94%

// Input: Cc1ccc(-c2nnnn2CC(=O)O)cc1 [Compound 3-6] . Output its inhibition at 1 µM only. 98%

// Input: Cc1ccc(-c2nnnn2CC(=O)O)cc1[N+](=O)[O-] [Compound 3-11] . Output its inhibition at 1 µM only. 92%

---

- Assayed Target: aldose reductase (Rattus norvegicus, UniProt P07943)
- Construct: their crystalline lenses were immediately removed and stored at -80° C; The lenses were homogenized; from tissue; host or cells: crystalline lens of six-week-old male SD rats (homogenate supernatant, dialysed)
- Method: Aldose Reductase Inhibition Test (Experiment 1)
- Assay type: biochemical, rat (male SD rat crystalline lens)
- Test Conditions: *Concentration of 10^-6 M; DL-glycerine aldehyde 10 mM, pH 6.2, 30° C., 5 min
Quick reference: inhibition at 1 µM of the listed items.
Your answer should be a plain number; it is taken to be in %.

Observe how each entry below is paired with its result.
COc1ccc(-c2nnnn2CC(=O)O)cc1 [Compound 3-7] | 95
O=C(O)Cn1nnnc1-c1ccc(Cl)cc1 [Compound 3-10] | 85
Cc1cccc(-c2nnnn2CC(=O)O)c1 [Compound 3-5] | 96
CCCCOc1ccc(-c2nnnn2CC(=O)O)cc1 [Compound 3-27] | 96
O=C(O)Cn1nnnc1-c1ccc(F)cc1 [Compound 3-3] | 94

Under aldose reductase (Rattus norvegicus, UniProt P07943), report inhibition at 1 µM for O=C(O)Cn1nnnc1-c1ccc(Oc2ccccc2)cc1 [Compound 3-25] 94

Under aldose reductase (Rattus norvegicus, UniProt P07943), report inhibition at 1 µM for O=C(O)Cn1nnnc1-c1ccc(Cl)c([N+](=O)[O-])c1 [Compound 3-2] 84

Under aldose reductase (Rattus norvegicus, UniProt P07943), report inhibition at 1 µM for O=C(O)Cn1nnnc1-c1ccc(-c2ccccc2)cc1 [Compound 3-23, 5-(4-Biphenylyl)-1-tetrazoleacetic acid] 95

Under aldose reductase (Rattus norvegicus, UniProt P07943), report inhibition at 1 µM for O=C(O)Cn1nnnc1-c1ccccc1 [Compound 3-1, 5-Phenyl-1-tetrazoleacetic acid] 97

Under aldose reductase (Rattus norvegicus, UniProt P07943), report inhibition at 1 µM for CCCCCCCc1ccc(-c2nnnn2CC(=O)O)cc1 [Compound 3-24] 96

---

- Assayed Target: aldose reductase (Rattus norvegicus, UniProt P07943)
IC50 vs 30 nM: less than gives criterion met; not less than gives criterion not met.

Worked examples follow.
CCCCOc1ccc(-c2nnnn2CC(=O)O)cc1 | criterion met
COc1ccc(-c2nnnn2CC(=O)O)cc1 | criterion not met
O=C(O)Cn1nnnc1-c1ccccc1 | criterion not met

Does the reported IC50 of the following molecule sit strictly below 30 nM? `Cc1cccc(-c2nnnn2CC(=O)O)c1` criterion not met

Does the reported IC50 of the following molecule sit strictly below 30 nM? `Cc1ccc(-c2nnnn2CC(=O)O)cc1` criterion met

Does the reported IC50 of the following molecule sit strictly below 30 nM? `O=C(O)Cn1nnnc1-c1ccc(-c2ccccc2)cc1` criterion met

Does the reported IC50 of the following molecule sit strictly below 30 nM? `O=C(O)Cn1nnnc1-c1ccc(O)cc1` criterion not met

Does the reported IC50 of the following molecule sit strictly below 30 nM? `O=C(O)Cn1nnnc1-c1ccc(-c2nnnn2CC(=O)O)cc1` criterion met

Does the reported IC50 of the following molecule sit strictly below 30 nM? `CCCCOc1ccc(-c2nnnn2CC(=O)O)cc1OCCCC` criterion not met
